Consider the following molecules and their measured melting point readings.
Counter-ions that a name gives are not always drawn.

Please review the entries below; each comes with its answer.
| molecule | melting point |
| --- | --- |
| Cc1ccc(CN2CCC(CCCC(=O)c3ccc4c(c3)CCN(Cc3cccc([N+](=O)[O-])c3)CC4)CC2)cc1 (as salt: hydrochloride) | 172 to 174 °C |
| CC(=O)N1CCc2ccc(C(=O)CCCC3CCN(Cc4ccccc4C)CC3)cc2CC1.Cl | 93 to 94 °C |
| Cc1ccccc1CN1CCc2ccc(C(=O)CCCC3CCN(Cc4ccccc4C(=O)O)CC3)cc2CC1 | 129 to 132 °C |
| Cc1ccccc1CN1CCc2ccc(C(=O)CCCC3CCN(Cc4ccccc4Cl)CC3)cc2CC1 (as salt: hydrochloride) | 165 to 168 °C |
| Cc1ccc(CN2CCC(CC(=O)c3ccc4c(c3)CCN(Cc3ccccc3)CC4)CC2)cc1.Cl.Cl | 229 to 233 °C |
| O=C(CCC1CCN(Cc2ccc3c(c2)OCO3)CC1)c1ccc2c(c1)CN(Cc1ccccc1)CCO2 (as salt: hydrochloride) | 233 to 235 °C |

Consider the record given below.
Sample COc1ccc(CN2CCC(CCC(=O)c3ccc4c(c3)CCN(Cc3ccc(F)cc3)CC4)CC2)cc1 (as salt: hydrochloride) — what was its melting point?
235 to 238 °C (dec.)

src = patent US6534496B1
